Origin of the recorded values: the kinase profiling compilation of Christmann-Franck et al. (2016)

test_system: FYN (human) (UniProt P06241)
Sequence (P06241 whole entry, looked up): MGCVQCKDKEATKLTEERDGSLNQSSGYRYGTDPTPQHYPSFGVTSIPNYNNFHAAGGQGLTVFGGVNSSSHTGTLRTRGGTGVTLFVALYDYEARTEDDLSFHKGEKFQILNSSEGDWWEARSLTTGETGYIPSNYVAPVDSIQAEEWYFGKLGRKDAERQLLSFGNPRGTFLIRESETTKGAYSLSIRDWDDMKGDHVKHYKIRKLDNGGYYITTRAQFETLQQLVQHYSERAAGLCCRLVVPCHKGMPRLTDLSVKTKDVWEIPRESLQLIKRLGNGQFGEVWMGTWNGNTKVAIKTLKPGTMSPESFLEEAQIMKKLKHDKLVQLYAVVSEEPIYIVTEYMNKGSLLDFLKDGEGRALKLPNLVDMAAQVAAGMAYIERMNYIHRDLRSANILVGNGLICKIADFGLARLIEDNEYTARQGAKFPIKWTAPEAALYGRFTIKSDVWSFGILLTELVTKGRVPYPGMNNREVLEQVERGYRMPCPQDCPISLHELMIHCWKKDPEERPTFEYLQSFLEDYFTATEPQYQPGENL
assay_method_text: KINOMEscan competition binding
assay_context: compound 10.0 µM
Binary label based on kinase still bound, per cent of control with cut-off 80%: below gives Yes, not below gives No.

[
  {
    "compound_smiles": "CCCS(=O)(=O)Nc1ccc(F)c(C(=O)c2c[nH]c3ncc(Cl)cc23)c1F",
    "label": "Yes"
  },
  {
    "compound_smiles": "N#C/C(=C1/Nc2ccccc2S1)c1ccnc(NCCc2cccnc2)n1",
    "label": "No"
  },
  {
    "compound_smiles": "N#Cc1cc(-c2ccnc(Nc3ccc(-n4cnc(-c5cccnc5)n4)cc3)n2)cc(N2CCOCC2)c1",
    "label": "No"
  },
  {
    "compound_smiles": "Cc1cn(-c2cc(C(=O)Nc3ccc(C)c(NC(=O)c4ccno4)c3)cc(C(F)(F)F)c2)cn1",
    "label": "Yes"
  }
]

* * *

Listed below: kinase still bound, per cent of control values for each entry.
test_system: UniProt Q96BR1
Sequence (Q96BR1 whole entry, looked up): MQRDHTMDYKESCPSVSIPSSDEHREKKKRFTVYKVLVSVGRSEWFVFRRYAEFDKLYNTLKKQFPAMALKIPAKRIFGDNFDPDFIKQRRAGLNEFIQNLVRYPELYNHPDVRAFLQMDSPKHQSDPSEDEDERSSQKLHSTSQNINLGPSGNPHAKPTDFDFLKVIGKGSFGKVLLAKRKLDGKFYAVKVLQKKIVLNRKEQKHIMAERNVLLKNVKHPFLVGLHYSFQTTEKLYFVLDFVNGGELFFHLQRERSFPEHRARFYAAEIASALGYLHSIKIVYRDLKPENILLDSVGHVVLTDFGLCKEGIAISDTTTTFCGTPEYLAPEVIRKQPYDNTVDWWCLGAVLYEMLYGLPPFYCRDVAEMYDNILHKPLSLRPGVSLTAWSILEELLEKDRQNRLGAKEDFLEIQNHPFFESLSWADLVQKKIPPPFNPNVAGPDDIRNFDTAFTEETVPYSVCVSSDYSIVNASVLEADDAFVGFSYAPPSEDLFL
assay_method_text: KINOMEscan competition binding
assay_context: compound 10.0 µM
quantity_kind: kinase still bound, per cent of control (%)

[
  {
    "compound": "CCN1CCN(Cc2ccc(NC(=O)c3ccc(C)c(/C=C/c4cnc5[nH]ccc5c4OC)c3)cc2C(F)(F)F)CC1",
    "unit_spec": "%",
    "observed_measurement": 38
  },
  {
    "compound": "N#Cc1cc(-c2ccnc(Nc3ccc(-n4cnc(-c5cccnc5)n4)cc3)n2)cc(N2CCOCC2)c1",
    "unit_spec": "%",
    "observed_measurement": 100
  },
  {
    "compound": "CC(=O)c1c(C)c2cnc(Nc3ccc(N4CCNCC4)cn3)nc2n(C2CCCC2)c1=O",
    "unit_spec": "%",
    "observed_measurement": 53
  },
  {
    "compound": "CCN(CCO)CCCOc1ccc2c(Nc3cc(CC(=O)Nc4cccc(F)c4)[nH]n3)ncnc2c1",
    "unit_spec": "%",
    "observed_measurement": 100
  },
  {
    "compound": "COc1cc2c(Nc3ccc(NC(=O)c4ccccc4)cc3)ncnc2cc1OCCCN1CCOCC1",
    "unit_spec": "%",
    "observed_measurement": 100
  },
  {
    "compound": "C=CC(=O)Nc1ccc(C(=O)c2sc(Nc3ccc(N4CCN(C)CC4)cc3OC)nc2N)cc1",
    "unit_spec": "%",
    "observed_measurement": 83
  },
  {
    "compound": "CCc1nc(-c2cccc(C)c2)c(-c2ccnc(NC(=O)c3ccccc3)c2)s1",
    "unit_spec": "%",
    "observed_measurement": 100
  },
  {
    "compound": "CNC(=O)Nc1ccc(-c2nc(N3CC4CCC(C3)O4)c3cnn(C4CCC5(CC4)OCCO5)c3n2)cc1",
    "unit_spec": "%",
    "observed_measurement": 100
  },
  {
    "compound": "CCCS(=O)(=O)Nc1ccc(F)c(C(=O)c2c[nH]c3ncc(Cl)cc23)c1F",
    "unit_spec": "%",
    "observed_measurement": 49
  },
  {
    "compound": "N#C/C(=C1/Nc2ccccc2S1)c1ccnc(NCCc2cccnc2)n1",
    "unit_spec": "%",
    "observed_measurement": 100
  },
  {
    "compound": "CC1=C(C(=O)Nc2cc3cn[nH]c3cc2F)C(c2ccc(C(F)(F)F)cc2)CC(=O)N1 (stereo unspecified)",
    "unit_spec": "%",
    "observed_measurement": 100
  }
]

* * *

test_system: PRPF4B (human) (UniProt Q13523)
Sequence (Q13523 whole entry, looked up): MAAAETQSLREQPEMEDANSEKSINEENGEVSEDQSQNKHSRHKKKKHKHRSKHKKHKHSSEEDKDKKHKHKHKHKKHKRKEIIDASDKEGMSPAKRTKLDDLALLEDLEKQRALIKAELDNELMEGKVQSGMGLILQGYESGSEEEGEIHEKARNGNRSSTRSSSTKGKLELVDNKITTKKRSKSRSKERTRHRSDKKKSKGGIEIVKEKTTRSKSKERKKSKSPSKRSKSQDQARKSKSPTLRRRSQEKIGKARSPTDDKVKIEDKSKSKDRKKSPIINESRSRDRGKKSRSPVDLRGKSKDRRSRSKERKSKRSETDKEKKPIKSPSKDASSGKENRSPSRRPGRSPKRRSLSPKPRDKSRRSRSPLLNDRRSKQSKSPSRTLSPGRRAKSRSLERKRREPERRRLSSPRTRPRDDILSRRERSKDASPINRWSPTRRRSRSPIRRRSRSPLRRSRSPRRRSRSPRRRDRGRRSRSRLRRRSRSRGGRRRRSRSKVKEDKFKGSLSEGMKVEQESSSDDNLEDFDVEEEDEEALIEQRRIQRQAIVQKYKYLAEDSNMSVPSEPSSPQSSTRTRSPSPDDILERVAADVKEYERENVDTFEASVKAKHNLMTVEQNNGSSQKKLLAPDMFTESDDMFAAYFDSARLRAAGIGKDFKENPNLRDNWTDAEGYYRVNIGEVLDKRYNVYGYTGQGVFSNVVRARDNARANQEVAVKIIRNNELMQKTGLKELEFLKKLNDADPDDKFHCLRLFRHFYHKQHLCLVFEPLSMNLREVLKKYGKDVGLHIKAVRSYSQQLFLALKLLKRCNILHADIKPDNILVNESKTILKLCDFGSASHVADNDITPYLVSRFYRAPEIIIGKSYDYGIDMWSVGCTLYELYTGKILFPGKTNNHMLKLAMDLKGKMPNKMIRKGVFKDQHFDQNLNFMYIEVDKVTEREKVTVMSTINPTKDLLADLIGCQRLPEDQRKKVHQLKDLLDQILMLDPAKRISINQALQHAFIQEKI
assay_method_text: KINOMEscan competition binding
assay_context: compound 10.0 µM
Output yes for records whose kinase still bound, per cent of control is lower than 80%, no for records at or above 80%.

[
  {
    "compound_smiles": "COc1cc2ncnc(Nc3cccc(Cl)c3)c2cc1OC",
    "label": "no"
  },
  {
    "compound_smiles": "N#Cc1cc(-c2ccnc(Nc3ccc(-n4cnc(-c5cccnc5)n4)cc3)n2)cc(N2CCOCC2)c1",
    "label": "yes"
  },
  {
    "compound_smiles": "CCN1CCN(Cc2ccc(NC(=O)c3ccc(C)c(/C=C/c4cnc5[nH]ccc5c4OC)c3)cc2C(F)(F)F)CC1",
    "label": "yes"
  },
  {
    "compound_smiles": "C=CC(=O)Nc1ccc(C(=O)c2sc(Nc3ccc(N4CCN(C)CC4)cc3OC)nc2N)cc1",
    "label": "no"
  }
]

* * *

test_system: MAP3K3 (human) (UniProt Q99759)
Sequence (Q99759 whole entry, looked up): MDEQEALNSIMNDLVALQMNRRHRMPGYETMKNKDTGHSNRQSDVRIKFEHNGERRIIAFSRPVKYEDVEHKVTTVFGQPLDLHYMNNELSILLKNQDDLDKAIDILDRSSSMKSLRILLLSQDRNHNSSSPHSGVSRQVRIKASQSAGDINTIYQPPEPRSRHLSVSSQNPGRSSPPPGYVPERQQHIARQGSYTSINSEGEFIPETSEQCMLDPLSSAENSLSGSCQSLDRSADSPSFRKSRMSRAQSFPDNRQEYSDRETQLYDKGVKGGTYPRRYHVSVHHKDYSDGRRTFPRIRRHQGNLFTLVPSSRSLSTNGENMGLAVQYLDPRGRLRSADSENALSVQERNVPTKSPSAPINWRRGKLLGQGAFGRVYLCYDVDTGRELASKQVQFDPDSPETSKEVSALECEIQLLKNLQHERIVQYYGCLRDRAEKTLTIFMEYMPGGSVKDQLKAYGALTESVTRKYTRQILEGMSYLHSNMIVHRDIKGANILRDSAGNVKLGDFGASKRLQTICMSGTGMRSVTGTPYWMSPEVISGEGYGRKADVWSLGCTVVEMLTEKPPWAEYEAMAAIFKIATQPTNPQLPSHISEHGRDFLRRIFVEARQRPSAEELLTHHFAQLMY
assay_method_text: KINOMEscan competition binding
assay_context: compound 10.0 µM
Lab note: anything with kinase still bound, per cent of control below 70% is marked Condition met; values at 70% or higher are marked Condition not met.

[
  {
    "compound_smiles": "CCc1nc(-c2cccc(C)c2)c(-c2ccnc(NC(=O)c3ccccc3)c2)s1",
    "label": "Condition not met"
  },
  {
    "compound_smiles": "CCCS(=O)(=O)Nc1ccc(F)c(C(=O)c2c[nH]c3ncc(Cl)cc23)c1F",
    "label": "Condition met"
  },
  {
    "compound_smiles": "Cc1cn(-c2cc(C(=O)Nc3ccc(C)c(NC(=O)c4ccno4)c3)cc(C(F)(F)F)c2)cn1",
    "label": "Condition not met"
  },
  {
    "compound_smiles": "N#Cc1cc(-c2ccnc(Nc3ccc(-n4cnc(-c5cccnc5)n4)cc3)n2)cc(N2CCOCC2)c1",
    "label": "Condition met"
  }
]

* * *

test_system: UniProt P15056
Sequence (P15056 whole entry, looked up): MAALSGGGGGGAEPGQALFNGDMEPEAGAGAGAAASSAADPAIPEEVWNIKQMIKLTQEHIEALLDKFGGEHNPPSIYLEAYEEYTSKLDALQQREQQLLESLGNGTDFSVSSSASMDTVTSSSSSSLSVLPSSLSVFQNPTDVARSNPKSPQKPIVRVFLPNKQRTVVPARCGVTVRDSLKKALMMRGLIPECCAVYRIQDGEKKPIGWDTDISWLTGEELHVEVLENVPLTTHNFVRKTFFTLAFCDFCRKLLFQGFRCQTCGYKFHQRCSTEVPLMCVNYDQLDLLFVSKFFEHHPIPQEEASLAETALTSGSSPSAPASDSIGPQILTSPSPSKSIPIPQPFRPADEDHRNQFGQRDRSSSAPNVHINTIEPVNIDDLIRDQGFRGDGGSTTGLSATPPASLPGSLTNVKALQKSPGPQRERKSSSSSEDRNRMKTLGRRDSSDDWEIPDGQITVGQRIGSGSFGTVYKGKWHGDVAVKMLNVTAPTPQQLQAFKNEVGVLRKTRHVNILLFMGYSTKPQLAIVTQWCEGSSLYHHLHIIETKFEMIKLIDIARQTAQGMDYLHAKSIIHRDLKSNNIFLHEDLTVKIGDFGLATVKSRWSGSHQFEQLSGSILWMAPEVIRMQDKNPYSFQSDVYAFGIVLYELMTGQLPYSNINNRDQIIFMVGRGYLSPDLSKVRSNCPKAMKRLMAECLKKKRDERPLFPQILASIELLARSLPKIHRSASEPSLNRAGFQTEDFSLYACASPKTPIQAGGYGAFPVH
assay_method_text: KINOMEscan competition binding
assay_context: compound 10.0 µM
Note to self: kinase still bound, per cent of control under 60% means label 1, ties and anything higher get label 0.

[
  {
    "compound_smiles": "CCCS(=O)(=O)Nc1ccc(F)c(C(=O)c2c[nH]c3ncc(Cl)cc23)c1F",
    "label": "label 1"
  },
  {
    "compound_smiles": "O=c1[nH]c2ccccc2n1C1CCN(Cc2ccc(-c3nc4cc5[nH]cnc5cc4nc3-c3ccccc3)cc2)CC1",
    "label": "label 0"
  },
  {
    "compound_smiles": "COc1cc2c(Nc3ccc(NC(=O)c4ccccc4)cc3)ncnc2cc1OCCCN1CCOCC1",
    "label": "label 0"
  },
  {
    "compound_smiles": "COc1cc2ncnc(Nc3cccc(Cl)c3)c2cc1OC",
    "label": "label 0"
  },
  {
    "compound_smiles": "CCOc1cc(N2CCC(O)CC2)ccc1Nc1ncc2c(n1)N(C)c1ccccc1C(=O)N2C",
    "label": "label 0"
  },
  {
    "compound_smiles": "N#C/C(=C1/Nc2ccccc2S1)c1ccnc(NCCc2cccnc2)n1",
    "label": "label 1"
  },
  {
    "compound_smiles": "CNC(=O)Nc1ccc(-c2nc(N3CC4CCC(C3)O4)c3cnn(C4CCC5(CC4)OCCO5)c3n2)cc1",
    "label": "label 0"
  },
  {
    "compound_smiles": "CCN(CCO)CCCOc1ccc2c(Nc3cc(CC(=O)Nc4cccc(F)c4)[nH]n3)ncnc2c1",
    "label": "label 0"
  },
  {
    "compound_smiles": "CCc1nc(-c2cccc(C)c2)c(-c2ccnc(NC(=O)c3ccccc3)c2)s1",
    "label": "label 1"
  }
]

* * *

Below, each entry is listed with its recorded kinase still bound, per cent of control.
test_system: MYO3A (human) (UniProt Q8NEV4)
Sequence (Q8NEV4 whole entry, looked up): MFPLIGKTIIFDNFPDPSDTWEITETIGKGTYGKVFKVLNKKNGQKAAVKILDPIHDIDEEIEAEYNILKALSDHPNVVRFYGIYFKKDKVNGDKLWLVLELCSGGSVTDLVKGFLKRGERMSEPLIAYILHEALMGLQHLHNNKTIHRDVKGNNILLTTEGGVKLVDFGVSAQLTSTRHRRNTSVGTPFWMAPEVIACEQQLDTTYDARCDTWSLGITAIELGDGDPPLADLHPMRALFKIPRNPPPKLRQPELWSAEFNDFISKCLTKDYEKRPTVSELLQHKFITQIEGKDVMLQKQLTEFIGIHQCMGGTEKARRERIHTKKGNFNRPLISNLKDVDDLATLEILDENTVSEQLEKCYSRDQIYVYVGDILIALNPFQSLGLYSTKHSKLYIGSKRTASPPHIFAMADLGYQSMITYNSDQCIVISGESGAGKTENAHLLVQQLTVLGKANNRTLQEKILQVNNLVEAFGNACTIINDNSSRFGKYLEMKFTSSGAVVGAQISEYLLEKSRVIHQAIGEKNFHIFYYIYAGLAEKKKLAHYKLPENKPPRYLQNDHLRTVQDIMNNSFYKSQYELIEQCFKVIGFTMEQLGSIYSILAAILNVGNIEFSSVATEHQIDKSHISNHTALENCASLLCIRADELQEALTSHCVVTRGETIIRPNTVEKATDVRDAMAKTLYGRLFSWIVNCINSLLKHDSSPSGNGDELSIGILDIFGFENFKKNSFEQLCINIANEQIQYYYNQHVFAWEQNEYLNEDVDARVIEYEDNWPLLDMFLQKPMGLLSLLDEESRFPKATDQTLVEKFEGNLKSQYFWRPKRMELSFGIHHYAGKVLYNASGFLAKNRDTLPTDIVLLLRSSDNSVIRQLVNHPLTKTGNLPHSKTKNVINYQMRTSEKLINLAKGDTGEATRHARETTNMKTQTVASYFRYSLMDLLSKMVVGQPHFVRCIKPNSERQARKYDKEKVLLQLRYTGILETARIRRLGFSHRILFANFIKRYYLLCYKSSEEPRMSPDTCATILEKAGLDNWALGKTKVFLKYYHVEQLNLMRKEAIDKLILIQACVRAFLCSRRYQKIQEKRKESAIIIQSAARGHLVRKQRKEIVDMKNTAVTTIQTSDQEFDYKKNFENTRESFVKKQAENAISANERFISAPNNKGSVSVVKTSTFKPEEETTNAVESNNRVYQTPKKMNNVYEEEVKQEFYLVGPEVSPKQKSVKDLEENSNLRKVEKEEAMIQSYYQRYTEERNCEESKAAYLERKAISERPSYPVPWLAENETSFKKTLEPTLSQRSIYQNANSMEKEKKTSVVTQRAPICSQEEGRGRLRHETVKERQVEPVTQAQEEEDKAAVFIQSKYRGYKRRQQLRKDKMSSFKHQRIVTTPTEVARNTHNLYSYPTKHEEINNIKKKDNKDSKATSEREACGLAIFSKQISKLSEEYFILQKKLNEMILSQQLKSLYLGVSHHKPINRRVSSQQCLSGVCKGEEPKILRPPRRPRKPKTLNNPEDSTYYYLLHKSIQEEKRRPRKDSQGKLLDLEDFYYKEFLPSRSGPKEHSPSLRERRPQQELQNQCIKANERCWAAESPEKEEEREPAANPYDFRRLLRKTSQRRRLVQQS
assay_method_text: KINOMEscan competition binding
assay_context: compound 10.0 µM

[
  {
    "compound": "Cc1cn(-c2cc(C(=O)Nc3ccc(C)c(NC(=O)c4ccno4)c3)cc(C(F)(F)F)c2)cn1",
    "test_system": "MYO3A (human) (UniProt Q8NEV4)",
    "kinase still bound, per cent of control [%]": 100
  },
  {
    "compound": "O=c1[nH]c2ccccc2n1C1CCN(Cc2ccc(-c3nc4cc5[nH]cnc5cc4nc3-c3ccccc3)cc2)CC1",
    "test_system": "MYO3A (human) (UniProt Q8NEV4)",
    "kinase still bound, per cent of control [%]": 100
  },
  {
    "compound": "CCN1CCN(Cc2ccc(NC(=O)c3ccc(C)c(/C=C/c4cnc5[nH]ccc5c4OC)c3)cc2C(F)(F)F)CC1",
    "test_system": "MYO3A (human) (UniProt Q8NEV4)",
    "kinase still bound, per cent of control [%]": 28
  },
  {
    "compound": "CCc1nc(-c2cccc(C)c2)c(-c2ccnc(NC(=O)c3ccccc3)c2)s1",
    "test_system": "MYO3A (human) (UniProt Q8NEV4)",
    "kinase still bound, per cent of control [%]": 60
  },
  {
    "compound": "CC(=O)c1c(C)c2cnc(Nc3ccc(N4CCNCC4)cn3)nc2n(C2CCCC2)c1=O",
    "test_system": "MYO3A (human) (UniProt Q8NEV4)",
    "kinase still bound, per cent of control [%]": 58
  },
  {
    "compound": "CCCS(=O)(=O)Nc1ccc(F)c(C(=O)c2c[nH]c3ncc(Cl)cc23)c1F",
    "test_system": "MYO3A (human) (UniProt Q8NEV4)",
    "kinase still bound, per cent of control [%]": 35
  },
  {
    "compound": "CC1=C(C(=O)Nc2cc3cn[nH]c3cc2F)C(c2ccc(C(F)(F)F)cc2)CC(=O)N1 (stereo not drawn)",
    "test_system": "MYO3A (human) (UniProt Q8NEV4)",
    "kinase still bound, per cent of control [%]": 85
  },
  {
    "compound": "CNC(=O)Nc1ccc(-c2nc(N3CC4CCC(C3)O4)c3cnn(C4CCC5(CC4)OCCO5)c3n2)cc1",
    "test_system": "MYO3A (human) (UniProt Q8NEV4)",
    "kinase still bound, per cent of control [%]": 52
  },
  {
    "compound": "COc1cc(C)c(Sc2cnc(NC(=O)c3ccc(CNC(C)C(C)C)cc3)s2)cc1C(=O)N1CCN(C(C)=O)CC1 (stereo not drawn)",
    "test_system": "MYO3A (human) (UniProt Q8NEV4)",
    "kinase still bound, per cent of control [%]": 100
  },
  {
    "compound": "COc1cc2c(Nc3ccc(NC(=O)c4ccccc4)cc3)ncnc2cc1OCCCN1CCOCC1",
    "test_system": "MYO3A (human) (UniProt Q8NEV4)",
    "kinase still bound, per cent of control [%]": 79
  },
  {
    "compound": "CCOc1cc(N2CCC(O)CC2)ccc1Nc1ncc2c(n1)N(C)c1ccccc1C(=O)N2C",
    "test_system": "MYO3A (human) (UniProt Q8NEV4)",
    "kinase still bound, per cent of control [%]": 100
  },
  {
    "compound": "C=CC(=O)Nc1ccc(C(=O)c2sc(Nc3ccc(N4CCN(C)CC4)cc3OC)nc2N)cc1",
    "test_system": "MYO3A (human) (UniProt Q8NEV4)",
    "kinase still bound, per cent of control [%]": 35
  },
  {
    "compound": "CCN(CCO)CCCOc1ccc2c(Nc3cc(CC(=O)Nc4cccc(F)c4)[nH]n3)ncnc2c1",
    "test_system": "MYO3A (human) (UniProt Q8NEV4)",
    "kinase still bound, per cent of control [%]": 81
  },
  {
    "compound": "COc1ccc(N(C(=O)Oc2cc(C(=O)Nc3cccc(C(F)(F)F)c3)ccc2C)c2ccnc(Nc3ccc(N4CCN(C)CC4)cc3)n2)c(OC)c1",
    "test_system": "MYO3A (human) (UniProt Q8NEV4)",
    "kinase still bound, per cent of control [%]": 100
  },
  {
    "compound": "COc1cc(N2CCC(C(N)=O)CC2)ccc1Nc1nc(N)c(Cl)c(Nc2ccccc2S(=O)(=O)C(C)C)n1",
    "test_system": "MYO3A (human) (UniProt Q8NEV4)",
    "kinase still bound, per cent of control [%]": 15
  },
  {
    "compound": "COc1cc2ncnc(Nc3cccc(Cl)c3)c2cc1OC",
    "test_system": "MYO3A (human) (UniProt Q8NEV4)",
    "kinase still bound, per cent of control [%]": 83
  },
  {
    "compound": "N#C/C(=C1/Nc2ccccc2S1)c1ccnc(NCCc2cccnc2)n1",
    "test_system": "MYO3A (human) (UniProt Q8NEV4)",
    "kinase still bound, per cent of control [%]": 80
  },
  {
    "compound": "N#Cc1cc(-c2ccnc(Nc3ccc(-n4cnc(-c5cccnc5)n4)cc3)n2)cc(N2CCOCC2)c1",
    "test_system": "MYO3A (human) (UniProt Q8NEV4)",
    "kinase still bound, per cent of control [%]": 69
  }
]
